- measurement notes: chemical genetic growth profiling, strain panel (AID 1159580);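 further: tested at 20 µM; growth read once vehicle control cultures reached saturation at 30 °C; 1 = growth at the plate median or of vehicle wells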
- condition description: S. cerevisiae strains, growth OD, strain wild type, stronger effect = lower value
Out of some 5,500 compounds screened, about 2,000 (36%) were called active. Not shown: some 18% with an inconclusive outcome. The list shows a part of the results.
quantity kind: normalized growth
No unit in the answer, please; the number alone is enough.

Problem: Write down normalized growth measured for item Cc1ccccc1C(OCCN(C)C)c1ccccc1 (centres undefined)
Solution: 0.989

Problem: Write down normalized growth measured for item `O=C1NCC2(CCN(CCc3ccccc3)CC2)O1`
Solution: 1.01

Problem: Write down normalized growth measured for item C/C=C(\C)C(=O)O[C@H]1C[C@@H](OC(C)=O)[C@@]2(C(=O)OC)CO[C@@H]3C2[C@]12CO[C@](O)(C(=O)OC)[C@H]2[C@](C)(C12O[C@@]1(C)[C@H]1C[C@@H]2OC2OC=C[C@@]21O)[C@@H]3O (some centres undefined)
Solution: 0.994

Problem: Write down normalized growth measured for item `CCn1cc(C(=O)O)c(=O)c2cc(F)c(N3CCNCC3)nc21`
Solution: 1.02

Problem: Write down normalized growth measured for item `C=CCc1ccc(O)c(OC)c1`
Solution: 0.95

Problem: Write down normalized growth measured for item `C[C@H]1COc2c(N3CCN(C)CC3)c(F)cc3c(=O)c(C(=O)O)cn1c23`
Solution: 0.981

Problem: Write down normalized growth measured for item CCn1cc(C(=O)O)c(=O)c2cc(F)c(N3CCNC(C)C3)c(F)c21 (centres undefined)
Solution: 0.997

Problem: Write down normalized growth measured for item `C[C@@H]1O[C@@H](O[C@H]2[C@H](Oc3cc(O)c4c(=O)cc(-c5ccc(O)cc5)oc4c3)O[C@H](CO)[C@@H](O)[C@@H]2O)[C@H](O)[C@H](O)[C@H]1O`
Solution: 0.998

Problem: Write down normalized growth measured for item `CCN(CC)C(=O)N1CCN(C)CC1`
Solution: 1.01

###

Could you please report measured normalized growth for the items listed next?
- measurement notes: chemical genetic growth profiling, strain panel (AID 1159580)
- condition description: S. cerevisiae deletion strains, growth OD, locus YBR171W, strain sec66, stronger effect = lower value
Out of some 5,500 compounds screened, about 2,000 (36%) were called active. Another 18% or so got no clear call; they are omitted. Some of the results follow.
No unit in the answer, please; the number alone is enough.

Problem: Write down normalized growth measured for item `NCCc1cnc[nH]1`
Solution: 1.03

Problem: Write down normalized growth measured for item `C#CCN(C)Cc1ccccc1`
Solution: 1.04

Problem: Write down normalized growth measured for item `Nc1ncn[nH]1`
Solution: 1.02

Problem: Write down normalized growth measured for item CCCCC/C=C/CCC(=O)N[C@H]1[C@H](Oc2c3cc4cc2Oc2ccc(cc2Cl)[C@@H](O[C@@H]2O[C@H](CO)[C@@H](O)[C@H](O)[C@H]2NC(C)=O)[C@@H]2NC(=O)[C@H](NC(=O)[C@@H]4NC(=O)[C@H]4NC(=O)C(Cc5ccc(c(Cl)c5)O3)NC(=O)[C@H](N)c3ccc(O)c(c3)Oc3cc(O)cc4c3)c3ccc(O)c(c3)-c3c(OC4O[C@H](CO)[C@@H](O)[C@H](O)[C@@H]4O)cc(O)cc3[C@@H](C(=O)O)NC2=O)O[C@H](CO)[C@@H](O)[C@@H]1O (some centres not stated)
Solution: 1

Problem: Write down normalized growth measured for item C/C=C(\C)C(=O)O[C@H]1C[C@@H](OC(C)=O)[C@@]2(C(=O)OC)CO[C@@H]3C2[C@]12CO[C@](O)(C(=O)OC)[C@H]2[C@](C)(C12O[C@@]1(C)[C@H]1C[C@@H]2OC2OC=C[C@@]21O)[C@@H]3O (some centres not stated)
Solution: 0.98

Problem: Write down normalized growth measured for item `CNC(=O)O/N=C(\C)SC`
Solution: 1

Problem: Write down normalized growth measured for item `C[n+]1c2cc(N)ccc2cc2ccc(N)cc21`
Solution: 0.934

Problem: Write down normalized growth measured for item `C=CCc1ccc(OC)cc1`
Solution: 1.01

Problem: Write down normalized growth measured for item `C#CCCCCCCCCCCCc1ccco1`
Solution: 0.997

Problem: Write down normalized growth measured for item `COC(=O)/C=C/C(C)=C/C=C/C(C)=C/C=C/C=C(C)/C=C/C=C(C)/C=C/C(=O)O`
Solution: 1.03

Problem: Write down normalized growth measured for item `C=CCCCCCCCCCCCc1ccco1`
Solution: 0.995

Problem: Write down normalized growth measured for item `C=CCc1ccc(O)c(OC)c1`
Solution: 0.994

###

- measurement notes: chemical genetic growth profiling, strain panel (AID 1159580);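 further: tested at 20 µM; growth read once vehicle control cultures reached saturation at 30 °C; 1 = growth at the plate median or of vehicle wells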
- condition description: S. cerevisiae deletion strains, growth OD, locus YBR023C, strain chs3
About 2,000 (36%) of roughly 5,500 compounds were called active. Not shown: some 18% with an inconclusive outcome. No stated cut-off is given here; in the data, active means normalized growth mostly below about 0.91 (no sharp cut-off); inconclusive means no clear call, values can overlap the other calls; inactive means mostly above about 0.92. Some of the results follow.
Select the correct class. Options are active, inactive and nothing else.

Problem: Which result was noted for this molecule in the test: `C#CCN(C)Cc1ccccc1`
Solution: inactive

Problem: Which result was noted for this molecule in the test: `CC1(C)S[C@@H]2[C@H](NC(=O)[C@H](N)c3ccccc3)C(=O)N2[C@H]1C(=O)O`
Solution: inactive

Problem: Which result was noted for this molecule in the test: `O=C(c1ccc(OCCN2CCCCC2)cc1)c1c(-c2ccc(O)cc2)sc2cc(O)ccc12`
Solution: inactive

Problem: Which result was noted for this molecule in the test: `c1ccc2c(c1)sc1ccccc12`
Solution: active

Problem: Which result was noted for this molecule in the test: `C=CCc1ccc(OC)cc1`
Solution: inactive

Problem: Which result was noted for this molecule in the test: `Nc1ncn[nH]1`
Solution: inactive

Problem: Which result was noted for this molecule in the test: `C=CCc1ccc(O)c(OC)c1`
Solution: inactive

###

- measurement notes: chemical genetic growth profiling, strain panel (AID 1159580);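 further: tested at 20 µM; growth read once vehicle control cultures reached saturation at 30 °C; 1 = growth at the plate median or of vehicle wells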
- condition description: S. cerevisiae deletion strains, growth OD, locus YLL001W, strain dnm1, stronger effect = lower value
Among all 5,500 compounds or so, about 2,000 (36%) were called active. Not shown: some 18% with an inconclusive outcome. The list shows a part of the results.
quantity kind: normalized growth
No unit in the answer, please; the number alone is enough.

Problem: Write down normalized growth measured for item `CCC[C@H](N[C@@H](C)C(=O)N1[C@H](C(=O)O)C[C@@H]2CCCC[C@@H]21)C(=O)OCC`
Solution: 1.02

Problem: Write down normalized growth measured for item `Cc1ccc(C(=O)Nc2ccc(S(=O)(=O)O)c3cc(S(=O)(=O)O)cc(S(=O)(=O)O)c23)cc1NC(=O)c1cccc(NC(=O)Nc2cccc(C(=O)Nc3cc(C(=O)Nc4ccc(S(=O)(=O)O)c5cc(S(=O)(=O)O)cc(S(=O)(=O)O)c45)ccc3C)c2)c1`
Solution: 1.07

Problem: Write down normalized growth measured for item Clc1ccc(C(OCCN2CCCCC2)c2ccccc2)cc1 (stereo not drawn)
Solution: 1.02

Problem: Write down normalized growth measured for item OCC(O)CN1CCN(c2ccccc2)CC1 (stereo not drawn)
Solution: 0.988

Problem: Write down normalized growth measured for item `O=C(NC(=O)c1ccccc1Cl)Nc1ccc(OC(F)(F)F)cc1`
Solution: 1.06

Problem: Write down normalized growth measured for item CC[C@]1(O)CC2CN(CCc3c([nH]c4ccccc34)[C@@](C(=O)OC)(c3cc4c(cc3OC)N(C)[C@H]3[C@@](O)(C(=O)OC)[C@H](OC(C)=O)[C@]5(CC)C=CCN6CC[C@]43[C@@H]65)C2)C1 (stereo partly drawn)
Solution: 1.05

Problem: Write down normalized growth measured for item CN(C)CCOC(c1ccc(Cl)cc1)c1ccccn1 (stereo not drawn)
Solution: 1.03

Problem: Write down normalized growth measured for item `O=C1NCC2(CCN(CCc3ccccc3)CC2)O1`
Solution: 0.945

###

- measurement notes: chemical genetic growth profiling, strain panel (AID 1159580);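 further: tested at 20 µM; growth read once vehicle control cultures reached saturation at 30 °C; 1 = growth at the plate median or of vehicle wells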
- condition description: S. cerevisiae deletion strains, growth OD, locus YAL021C, strain ccr4, stronger effect = lower value
About 2,000 (36%) of roughly 5,500 compounds were called active. About 18% were inconclusive and are not listed. This is one part of the list.
quantity kind: normalized growth
No unit in the answer, please; the number alone is enough.

Problem: Write down normalized growth measured for item `COc1ccc(C(=O)O)cc1OC`
Solution: 0.981

Problem: Write down normalized growth measured for item `Oc1cc(O)c2c(c1)O[C@H](c1cc(O)c(O)c(O)c1)[C@H](O)C2`
Solution: 0.992

Problem: Write down normalized growth measured for item `Oc1cc(O)c2c(c1)O[C@H](c1ccc(O)c(O)c1)[C@@H](O)C2`
Solution: 1.03

Problem: Write down normalized growth measured for item `COc1ccc([C@H]2Oc3c(I)c(OC)cc(OC)c3C[C@@H]2O)cc1OC`
Solution: 1.01

Problem: Write down normalized growth measured for item `CC[C@@H]1C=C/C=C/C[C@H](C)[C@@H](O)[C@](C)(O)C(=O)[C@H](C)[C@@H](O)[C@H](C)C(=O)[C@H](C)[C@@H](O)[C@H](C)/C=C/C(=O)O[C@H]2[C@@H](C)[C@@H](CC1)O[C@@]1(CC[C@@H](C)[C@@H](C[C@H](C)O)O1)[C@@H]2C`
Solution: 0.977

Problem: Write down normalized growth measured for item `C=CCc1ccc(OC)cc1`
Solution: 0.982

Problem: Write down normalized growth measured for item O=C(/C=C/c1ccc(O)c(O)c1)OC(Cc1ccc(O)c(O)c1)C(=O)O (configuration not stated)
Solution: 1.07
